system_under_test: BRD2-BD2 (Homo sapiens (Human), UniProt P25440)
Sequence (P25440 344-453): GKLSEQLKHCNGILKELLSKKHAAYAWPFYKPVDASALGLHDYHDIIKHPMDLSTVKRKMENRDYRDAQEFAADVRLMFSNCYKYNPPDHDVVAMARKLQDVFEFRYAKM
method_summary: competitive TR-FRET assay, BET-BD with acetylated peptide ligand
Type: binding
condition_label: BRD2-BD2; Table 11 additional modifications; read-out: 2.2 EC50
value_type: EC50 (nM)

(A) CC(=O)N1c2ccc(-c3cccc(NCC4CCCCC4)c3)cc2[C@H](NC(=O)OC(C)C)C[C@@H]1C
(B) CC(=O)Nc1cccc(-c2ccc3c(c2)[C@H](Nc2ccccc2C#N)C[C@H](C)N3C(C)=O)c1
Prompt: Pick the one with the larger EC50: A vs B Choose, then provide that item's label.
Completion: A

(P) CC(=O)N1c2ccc(-c3cccc(NC(=O)OC(C)(C)C)c3)cc2[C@H](NC(=O)OC(C)C)C[C@@H]1C
(Q) C#CCCCC(=O)Nc1cccc(-c2ccc3c(c2)[C@H](Nc2ccc(C(=O)OC)cc2)C[C@H](C)N3C(C)=O)c1
(R) CC(=O)Nc1cccc(-c2ccc3c(c2)[C@H](NC(=O)CC(C)C)C[C@H](C)N3C(C)=O)c1
Prompt: List from greatest to least EC50. Provide the labels, sequenced as the question asks.
Completion: R, P, Q

(a) CC(=O)N1c2ccc(-c3cccc(NC(=O)C4CCC(C)CC4)c3)cc2[C@H](NC(=O)OC(C)C)C[C@@H]1C (stereo partly shown)
(b) CC(=O)N1c2ccc(-c3cccc(NC(=O)C(C)C)c3)cc2[C@H](NC(=O)OC(C)C)C[C@@H]1C
Prompt: Lab notebook, comparison: a versus b , higher EC50 goes to which? Reply briefly: the label of your chosen item.
Completion: a

Values from patent US11028051B2
